Form field: viability, T/C (one value per entry).
- Tested on: 485368-065-R4-J2-PDC spheroids with HUVEC/MSC, viability
- testDescription: Anticancer human tumor 485368-065-R4-J2-PDC patient-derived pancreatic carcinoma cell line growth inhibition [CLK]
- settings: second compound 1 µM; first compound 1 µM; active compounds read low
Quick reminder: number only, in %, skip the unit.

Some entries whose results are on file:
CCc1c2c(nc3ccc(O)cc13)-c1cc3c(c(=O)n1C2)COC(=O)[C@]3(O)CC + CN1CCN(c2cc(C(=O)Nc3cc4cc(-c5cnn(C)c5)ccc4cn3)ccn2)CC1 | 15.4
CC1COCCN1c1cc(C2(S(C)(=N)=O)CC2)nc(-c2ccnc3[nH]ccc23)n1 (stereo unspecified) + CNC(=O)c1ccc(Nc2nc(OC3CCCC3)c3c(-c4ccc5nc(C)oc5c4)c[nH]c3n2)c(OC)c1 | 81.2
COc1c(OCCCN2CCOCC2)ccc2c3n(c(=NC(=O)c4cnc(N)nc4)nc12)CCN3 + CN1CCN(c2cc(C(=O)Nc3cc4cc(-c5cnn(C)c5)ccc4cn3)ccn2)CC1 | 5.51
C=C(F)C(=O)N1CCN(c2nc(OCC3CCCN3C)nc3c2CCN(c2cccc4cccc(Cl)c24)C3)CC1CC#N (stereo unspecified) + CN1CCN(c2cc(C(=O)Nc3cc4cc(-c5cnn(C)c5)ccc4cn3)ccn2)CC1 | 1.58
C=CC(=O)N1CCN(c2nc(=O)n(-c3c(C)ccnc3C(C)C)c3nc(-c4c(O)cccc4F)c(F)cc23)C(C)C1 (stereo unspecified) + CN1CCN(c2cc(C(=O)Nc3cc4cc(-c5cnn(C)c5)ccc4cn3)ccn2)CC1 | 1.9

Consider the record given below.
# molecule CC1COCCN1c1cc(C2(S(C)(=N)=O)CC2)nc(-c2ccnc3[nH]ccc23)n1 (stereo unspecified) + CN1CCN(c2cc(C(=O)Nc3cc4cc(-c5cnn(C)c5)ccc4cn3)ccn2)CC1 ; its viability, T/C = 1.83

###

- System: 485368-065-R4-J2-PDC spheroids with HUVEC/MSC, viability
- testDescription: Anticancer human tumor 485368-065-R4-J2-PDC cell line growth inhibition [CLK];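 note: spheroids exposed to compounds for seven days; 100% = DMSO vehicle control wells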
- settings: second compound 0.0316 µM; first compound 0.1 µM; active compounds read low
attributeMeasured: viability, T/C (%)
Give the quantity in %, number only.

// worked examples, viability, T/C included
CCN1CCN(Cc2ccc(Nc3ncc(F)c(-c4cc(F)c5nc(C)n(C(C)C)c5c4)n3)nc2)CC1 + CNC(=O)c1ccc(Nc2nc(OC3CCCC3)c3c(-c4ccc5nc(C)oc5c4)c[nH]c3n2)c(OC)c1 | 135
CC1COCCN1c1cc(C2(S(C)(=N)=O)CC2)nc(-c2ccnc3[nH]ccc23)n1 (stereo not given) + CN1CCN(c2cc(C(=O)Nc3cc4cc(-c5cnn(C)c5)ccc4cn3)ccn2)CC1 | 111
O=C(c1cc(Cc2n[nH]c(=O)c3ccccc23)ccc1F)N1CCN(C(=O)C2CC2)CC1 + CN1CCN(c2cc(C(=O)Nc3cc4cc(-c5cnn(C)c5)ccc4cn3)ccn2)CC1 | 111
CCc1c2c(nc3ccc(O)cc13)-c1cc3c(c(=O)n1C2)COC(=O)[C@]3(O)CC + CNC(=O)c1ccc(Nc2nc(OC3CCCC3)c3c(-c4ccc5nc(C)oc5c4)c[nH]c3n2)c(OC)c1 | 7.46
CC(Nc1ccc2c(c1)OCCn1cc(N3C(=O)OCC3C(F)F)nc1-2)C(N)=O (stereo not given) + CNC(=O)c1ccc(Nc2nc(OC3CCCC3)c3c(-c4ccc5nc(C)oc5c4)c[nH]c3n2)c(OC)c1 | 119

GET /values?item= COc1cccc2c1C(=O)c1c(O)c3c(c(O)c1C2=O)CC(O)(C(=O)CO)CC3OC1CC(N)C(O)C(C)O1 (stereo not given) + CNC(=O)c1ccc(Nc2nc(OC3CCCC3)c3c(-c4ccc5nc(C)oc5c4)c[nH]c3n2)c(OC)c1 &system= 485368-065-R4-J2-PDC spheroids with HUVEC/MSC, viability returns viability, T/C: 94.2

Reported viability, T/C (485368-065-R4-J2-PDC spheroids with HUVEC/MSC, viability) for entry CC(=O)O[C@H]1C(=O)[C@@]2(C)[C@H]([C@H](OC(=O)c3ccccc3)[C@]3(O)C[C@H](OC(=O)[C@H](O)[C@@H](NC(=O)c4ccccc4)c4ccccc4)C(C)=C1C3(C)C)[C@]1(OC(C)=O)CO[C@@H]1C[C@@H]2O + CN1CCN(c2cc(C(=O)Nc3cc4cc(-c5cnn(C)c5)ccc4cn3)ccn2)CC1 is 41.3

viability, T/C of Nc1ccn(C2OC(CO)C(O)C2(F)F)c(=O)n1 (stereo not given) + CN1CCN(c2cc(C(=O)Nc3cc4cc(-c5cnn(C)c5)ccc4cn3)ccn2)CC1 , assay on 485368-065-R4-J2-PDC spheroids with HUVEC/MSC, viability, is 32.7

Log: 485368-065-R4-J2-PDC spheroids with HUVEC/MSC, viability, compound CC(CO)NC(=O)c1cc(-c2ccc(Cl)cc2)nn(-c2cnn(C)c2)c1=O (stereo not given) + CN1CCN(c2cc(C(=O)Nc3cc4cc(-c5cnn(C)c5)ccc4cn3)ccn2)CC1 , viability, T/C = 106

I looked up CCc1c2c(nc3ccc(O)cc13)-c1cc3c(c(=O)n1C2)COC(=O)[C@]3(O)CC + CN1CCN(c2cc(C(=O)Nc3cc4cc(-c5cnn(C)c5)ccc4cn3)ccn2)CC1 and its viability, T/C for 485368-065-R4-J2-PDC spheroids with HUVEC/MSC, viability was 7.09
